study system: UniProt P53779
pIC50: −log10 of the molar value.

{"columns": ["compound structure string", "study system", "pIC50"],
 "data": [
  ["CC(C)c1n[nH]c(-c2c(Cl)csc2NC(=O)CN2C(=O)CCc3ncccc32)n1", "UniProt P53779", "5.00 to 7.00"],
  ["O=C(Cc1cccc2ccccc12)Nc1ccsc1-c1ccccn1", "UniProt P53779", "5.00 to 7.00"],
  ["O=C(Cn1c(=O)ccc2ccc(C(F)(F)F)cc21)Nc1scc(Br)c1-c1ncn[nH]1", "UniProt P53779", "> 7.00"],
  ["Cc1csc(NC(=O)CN2C(=O)CCc3ccccc32)c1-c1ncn[nH]1", "UniProt P53779", "> 7.00"],
  ["O=C(Cc1cc(C(F)(F)F)cc2ncccc12)Nc1scc(Br)c1-c1nnc[nH]1", "UniProt P53779", "5.00 to 7.00"],
  ["O=C(Cn1c(=O)ccc2cnccc21)Nc1scc(Br)c1-c1ncn[nH]1", "UniProt P53779", "> 7.00"],
  ["Cn1cnc(-c2c(Cl)csc2NC(=O)Cn2c(=O)ccc3cnc(C(F)(F)F)cc32)n1", "UniProt P53779", "> 7.00"],
  ["N#Cc1csc(NC(=O)Cn2c(=O)ccc3cc(C(F)(F)F)ccc32)c1-n1nnc2ccccc21", "UniProt P53779", "5.00 to 7.00"],
  ["O=C(Cn1c(=O)ccc2nc(C(F)(F)F)ccc21)Nc1scc(Br)c1-c1ncn[nH]1", "UniProt P53779", "> 7.00"],
  ["O=C(Cn1c(=O)ccc2cc(Cl)ccc21)Nc1scc(Br)c1-c1ncn[nH]1", "UniProt P53779", "> 7.00"],
  ["O=C(CN1C(=O)CCc2cnccc21)Nc1scc(Br)c1-c1ncn[nH]1", "UniProt P53779", "> 7.00"],
  ["O=C(Cn1c(=O)ccc2cc(F)c(F)cc21)Nc1scc(Br)c1-c1ncn[nH]1", "UniProt P53779", "> 7.00"],
  ["Cc1n[nH]c(-c2c(C)csc2NC(=O)Cc2cccc3nccnc23)n1", "UniProt P53779", "5.00 to 7.00"],
  ["O=C(Cc1ccc(C(F)(F)F)c2ncccc12)Nc1scc(Cl)c1-c1ncn[nH]1", "UniProt P53779", "5.00 to 7.00"],
  ["O=C(CN1C(=O)CCc2cc(F)ccc21)Nc1scc(Br)c1-c1ncn[nH]1", "UniProt P53779", "> 7.00"],
  ["O=C(Cc1cccc2ccncc12)Nc1scc(Br)c1-c1ncn[nH]1", "UniProt P53779", "> 7.00"],
  ["Cc1nc(-c2sccc2NC(=O)Cc2cccc3ccccc23)n(C)n1", "UniProt P53779", "< 5.00"],
  ["N#Cc1csc(NC(=O)Cc2cccc3ncccc23)c1-c1nnc[nH]1", "UniProt P53779", "> 7.00"],
  ["O=C(Cc1cccc2cnccc12)Nc1scnc1-c1ncn[nH]1", "UniProt P53779", "5.00 to 7.00"],
  ["COc1nc(-c2sccc2NC(=O)Cc2cccc3cnccc23)cs1", "UniProt P53779", "5.00 to 7.00"],
  ["O=C(Cn1c(=O)ccc2cc(C(F)(F)F)ccc21)Nc1sc(Cl)cc1-c1ncn[nH]1", "UniProt P53779", "5.00 to 7.00"]
]}

* * *

This section lists IC50 readings for JNK3 (Homo sapiens (Human), UniProt P53779).

{"columns": ["compound structure string", "IC50"],
 "data": [
  ["O=C(Cn1c(=O)ccc2cnc(C(F)(F)F)cc21)Nc1scc(Br)c1-c1ncn[nH]1", "< 100 nM"],
  ["O=C(Cc1cc(F)cc2ncccc12)Nc1scc(Br)c1-c1ncn[nH]1", "< 100 nM"],
  ["O=C(CN1C(=O)CCc2ccc(Cl)cc21)Nc1scc(Br)c1-c1ncn[nH]1", "< 100 nM"],
  ["O=C(Cc1cccc2cnccc12)Nc1scnc1-c1cnccn1", "100 to 10000 nM"],
  ["O=C(CN1C(=O)CCc2ncccc21)Nc1scc(Br)c1-c1ncn[nH]1", "< 100 nM"],
  ["O=C(Cc1cc(C(F)(F)F)c2cccnc2c1)Nc1scc(Br)c1-c1nnc[nH]1", "100 to 10000 nM"],
  ["COc1ccc(CC(=O)Nc2scc(C)c2-c2nc(C)n[nH]2)cc1", "100 to 10000 nM"],
  ["N#Cc1ccc2c(ccc(=O)n2CC(=O)Nc2scc(Cl)c2-c2nc[nH]n2)c1", "< 100 nM"],
  ["O=C(CN1C(=O)CCc2cc(C(F)(F)F)ccc21)Nc1scc(Br)c1-c1ncn[nH]1", "< 100 nM"],
  ["COc1ccc(CC(=O)Nc2ccsc2-c2nc(C3CC3)n[nH]2)cc1", "100 to 10000 nM"],
  ["COc1ccc(CC(=O)Nc2ccsc2-n2cccn2)cc1", "> 10000 nM"],
  ["Cc1csc(-c2sccc2NC(=O)Cc2cccc3cnccc23)n1", "100 to 10000 nM"],
  ["O=C(Cc1cccc2cnccc12)Nc1scc(Cl)c1-c1ncn[nH]1", "< 100 nM"],
  ["O=C(Cc1cccc2cnccc12)Nc1scc(Br)c1-c1ncn[nH]1", "< 100 nM"],
  ["O=C(Cn1c(=O)ccn2nc(C(F)(F)F)cc12)Nc1scc(Cl)c1-c1ncn[nH]1", "< 100 nM"],
  ["Cn1cnc(-c2c(Br)csc2NC(=O)CN2C(=O)CCc3ncccc32)n1", "< 100 nM"],
  ["O=C(CN1C(=O)CCc2ccc(Br)cc21)Nc1scc(Br)c1-c1ncn[nH]1", "100 to 10000 nM"],
  ["O=C(Cc1cccc2cc(F)cnc12)Nc1scc(Br)c1-c1nc[nH]n1", "100 to 10000 nM"],
  ["N#Cc1csc(NC(=O)Cc2cccc3cnccc23)c1-c1ncn[nH]1", "< 100 nM"],
  ["O=C(Cn1c(=O)ccn2nccc12)Nc1scc(Br)c1-c1ncn[nH]1", "< 100 nM"],
  ["O=C(Cc1cccc2ccccc12)Nc1ccsc1-c1ncn[nH]1", "100 to 10000 nM"],
  ["O=C(Cc1cc2ncccc2cc1F)Nc1scc(Br)c1-c1ncn[nH]1", "100 to 10000 nM"],
  ["Cc1cn2c(CC(=O)Nc3scc(Br)c3-c3ncn[nH]3)csc2n1", "100 to 10000 nM"],
  ["Cn1ccnc1-c1sccc1NC(=O)Cc1cccc2ccccc12", "> 10000 nM"],
  ["O=C(Cn1c(=O)ccc2cc(F)ccc21)Nc1scc(Br)c1-c1ncn[nH]1", "< 100 nM"],
  ["O=C(CN1C(=O)CCc2ccccc21)Nc1scc(Cl)c1-c1ncn[nH]1", "< 100 nM"],
  ["Cc1n[nH]c(-c2c(C)csc2NC(=O)CN2C(=O)CCc3ccccc32)n1", "< 100 nM"],
  ["N#Cc1csc(NC(=O)Cn2c(=O)ccc3cc(C(F)(F)F)ccc32)c1-c1cscn1", "< 100 nM"],
  ["N#Cc1csc(NC(=O)Cn2c(=O)ccc3cc(C(F)(F)F)ccc32)c1-c1nccs1", "< 100 nM"],
  ["O=C(Cn1c(=O)ccc2ccc(OC(F)(F)F)cc21)Nc1scc(Br)c1-c1ncn[nH]1", "< 100 nM"],
  ["Cc1csc(NC(=O)Cc2ccc(OCCCN3CCCCC3)cc2)c1-c1ncn[nH]1", "100 to 10000 nM"],
  ["O=C(Cn1c(=O)ccc2cc(F)c(F)cc21)Nc1sccc1-c1ncon1", "100 to 10000 nM"],
  ["O=C(CN1C(=O)CCc2ccccc21)Nc1scc(Br)c1-c1ncn[nH]1", "< 100 nM"],
  ["O=C(Cn1c(=O)ccc2nc(C(F)(F)F)ccc21)Nc1scc(Cl)c1-c1ncn[nH]1", "< 100 nM"],
  ["O=C(Cc1cccc2ccccc12)Nc1ccsc1-n1ccnc1", "100 to 10000 nM"],
  ["C#Cc1ccc2c(ccc(=O)n2CC(=O)Nc2scc(Br)c2-c2ncn[nH]2)c1", "< 100 nM"],
  ["O=C(CN1C(=O)CCc2ncccc21)Nc1scc(Cl)c1-c1nccs1", "< 100 nM"],
  ["N#Cc1csc(NC(=O)CN2C(=O)CCc3ncccc32)c1-c1nc2ccccc2s1", "100 to 10000 nM"],
  ["O=C(Cc1ccc(OCCCN2CCCCC2)cc1)Nc1ccsc1-c1cscn1", "100 to 10000 nM"],
  ["O=C(Cc1cccc2ccccc12)Nc1ccsc1-c1nnco1", "100 to 10000 nM"],
  ["CCc1n[nH]c(-c2sccc2NC(=O)Cc2ccc(OC)cc2)n1", "100 to 10000 nM"],
  ["N#Cc1csc(NC(=O)Cn2c(=O)ccc3cc(C(F)(F)F)ccc32)c1-n1ccnn1", "100 to 10000 nM"]
]}
